system: U-251; experiment: NCI tumour cell line growth inhibition, 48 h
The source made the active and inactive calls. Cut-off read from the data, not from the text of the source: active = GI50 up to about 1.1 µM and inactive = higher.
Write down one outcome, taken from YES for active, NO for inactive

Dear all, I need the recorded test outcome for O=CCCn1[nH]c(=O)ccc1=O , thank you.
NO

What call does the record list for CC(Cc1ccc(O)c(O)c1)C(C)Cc1ccc(O)c(O)c1 (configuration not stated) [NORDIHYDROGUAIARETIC ACID] ?
NO

// return assay outcome for Cc1c(Cl)ccc2c1NC(=O)C2(O)C1Cc2ccccc2C1=O (configuration not stated)
NO

In this assay, the call recorded for COc1ccc2oc(=N)c(C(N)=S)cc2c1 was what?
NO

Each compound tested received a call. Report the one for Cc1ccc(C(=C2Sc3ccccc3S2)C(=C2Sc3ccccc3S2)c2ccc(C)s2)s1 .
NO

Short answer needed: outcome of this test for COC(=O)[C@H](Cc1c[nH]c2ccccc12)NP(=O)(OCCC#N)OCC1OC(n2cc(C)c(=O)[nH]c2=O)CC1N=[N+]=[N-] (some centres not stated) ?
NO

For N#CC1C(=O)NC23CCCCC2C1c1ccccc1O3 (configuration not stated) , what call appears in the results of this test?
NO

Which outcome did this test record for the compound CSc1ccc(NC(=O)C2c3[nH]c4ccccc4c3C3CCC(C(C)(C)C)CC3C2C(=O)O)cc1 (configuration not stated) ?
NO

Fill in: this test's call for CC(C)C1COC(c2cccc(C3=N[C@@H](C(C)C)CO3)n2)=N1 (some centres not stated) is ___
NO

Kindly provide the recorded test outcome for the following compound: CCC12CN(C(=O)OC)C3C(Br)C1CCC(=O)C32 (configuration not stated)
NO

What did this assay record as the result for CC1OC(=O)N(CCCC=C2SCCCS2)C1=O (configuration not stated) ?
NO

How was CC[C@]1(Cc2ccc(OC)c(OC)c2)CN(S(=O)(=O)c2ccc(C)cc2)C[C@@H]1OC(C)=O classified in this test?
NO

Would you mind telling me which call this test gave CCOC(=O)/C=C1/Oc2ccccc2C1(C)O (configuration not stated) ?
NO

How was O=c1[nH]c(=O)n(C2OC(COP(=O)(O)OP(=O)(O)O)C(O)C2O)cc1F (configuration not stated) classified in this test?
YES

Assay result, entry S=C1SC(=N\c2ccccc2)/C(=N/c2ccccc2)N1c1ccccc1 — outcome?
NO

How was Cc1ccc(C2=C(C#N)C(=O)N3CCN=C3S2)cc1 classified in this test?
NO

Short answer needed: outcome of this test for Cc1nc(N)c(N2CCN(C#N)CC2)c(O)n1 ?
NO

What did the test return for CCN(CC)CCOc1ccc(N2Cc3cc(OC)c(OC)cc3C2=O)cc1 ?
NO

Each compound tested received a call. Report the one for CC(C)=CCC/C(=C/CC/C(C)=C/CCc1ccoc1)C(=O)O .
NO

Check the results log: what was the call for CC[C@H](C)C(=O)O[C@H]1CCC=C2C=C[C@H](C)[C@H](CC[C@@H]3C[C@@H](O)CC(=O)O3)[C@H]21 ?
NO

Test call, this compound: C=C1c2[nH]c3ccccc3c2CC(C(=O)O)N1C(O)c1ccc(S(=O)(=O)O)cc1 (configuration not stated)
NO

Test call for this compound, please: COc1ccc(C(SCC(N)C(=O)O)(c2ccc(OC)cc2)c2ccc(OC)cc2)cc1 (configuration not stated)
NO

* * *

test system: MOLT-4; assay: NCI tumour cell line growth inhibition, 48 h
Activity calls are given as the source filed them. No stated cut-off is given here; in the data, active = GI50 up to about 1.1 µM and inactive = higher.
The reply should name one outcome from class 1 for active, class 0 for inactive

Field: outcome | Entry: CC(=O)OC1=C2CC3(C)OC(=O)CC(C)(C)C3=CC=C2C=C(C(C)C)C1=O (configuration not stated)
class 1

Check the results log: what was the call for OCCCCn1cnc2c(O)ncnc21 ?
class 0

Hello, I am checking results. What call was entered for COc1ccc(C(C)NNC(=O)c2ccncc2)c(OC)c1 (configuration not stated) ?
class 0

For this molecule, state the assay outcome: CN(CCNC(=O)c1cc(-c2ccccc2)nc2ccccc12)CCNC(=O)c1cc(-c2ccccc2)nc2ccccc12
class 0

What outcome does the record of this test show for COC(=O)C(=O)C(CC(=O)Nc1ccc(C)cc1)C(=O)OC (configuration not stated) ?
class 0

Hi, sorry to bother you, what did the test record for O=c1c(=O)c2c(Br)sc(Br)c2c1=O ?
class 0

Lab log entry: Oc1ccc2c(c1)CCc1c-2n(CCN2CCOCC2)c2ccc(O)cc12 — outcome as called in the assay?
class 0

Outcome? CC[C@H](C)[C@H](NC(=O)[C@H](Cc1ccc(O)cc1)NCC(F)(F)F)C(=O)OC(C)(C)C
class 0

Which result was noted for this molecule in the test: Brc1ccc(/N=c2/nc3ccccn3n3nc(-c4ccccc4)cc23)cc1
class 0

Identify the outcome logged in this assay for the molecule shown: O=C1C=CC(=O)c2c1ccc1c3ccccc3n(Cc3ccccc3)c21
class 0

State the result this test recorded for O=C(CCc1n[nH]c(=S)o1)Nc1ccccc1C(F)(F)F .
class 0

Recorded test outcome, item CC(=O)Oc1cc(OC(C)=O)c2c(=O)c3ccccc3n(C)c2c1
class 0

GET /call?item= CCCC(=O)OCOC(=O)N(C)/N=N/c1ccc(C(=O)OCC)cc1 returns the recorded outcome of this test.
class 0

Please let me know the test result on file for COc1cccc(NC(=O)CC(=O)n2nc(-c3ccccc3)c(/N=N/c3ccc(Cl)cc3)c2-c2ccccc2)c1 .
class 0

Hi team, can someone confirm the assay call for CSCC(CO)NC(=O)/C=C/c1c(C)[nH]c(=O)[nH]c1=O (configuration not stated) ?
class 0

Hi, sorry to bother you, what did the test record for O=C(Nc1ccccc1Br)c1cccc([N+](=O)[O-])c1O ?
class 0

Outcome? CC1OC(=O)N(CCCC=C2SCCCS2)C1=O (configuration not stated)
class 0

// return assay outcome for CCOC(=O)c1ccc(Nc2c3c(nc4ccccc24)CCCC3)cc1
class 0

What is the recorded call for this molecule in the test? Nc1cc(S(=O)(=O)O)cc2cc(S(=O)(=O)O)c(/N=N/c3ccc(-c4ccc(/N=N/c5c(S(=O)(=O)O)cc6cc(S(=O)(=O)O)cc(N)c6c5O)cc4)cc3)c(O)c12
class 0

Status in this test for COc1ccc(/C=C2/C[N+](C)(C)C/C(=C/c3ccc(OC)cc3)C2=O)cc1 ?
class 0

So what was the verdict on C=C1c2nc3ccccc3n2C=C(c2ccccc2)N1c1ccc(Cl)cc1 in this test?
class 0

Outcome? CCN(CC)c1cc2c3c(c1)CCCN3CCC2
class 0

Which result was noted for this molecule in the test: CCN1C(=O)C(=Cc2ccc(-c3ccccc3)cc2)C(=O)N(CC)C1=S
class 0

Each molecule tested received a call. Report the one for c1ccc2cc(CNCCCCNCCCNCc3ccc4ccccc4c3)ccc2c1 .
class 1

Assay result, entry O=c1c2cccc3cccc(c4n1CCCN=4)c32 — outcome?
class 0

Would you mind telling me which call this test gave Cc1nc(Nc2ccccc2Cl)sc1C(=O)CC(=O)C(=O)Nc1c(Cl)cccc1Cl ?
class 0

Call for entry [N-]=[N+]=NC(c1cn(C2CC(O)C(CO)O2)c(=O)[nH]c1=O)C(Cl)Br (configuration not stated) :
class 0

* * *

Exercise: for every item that follows, state its recorded GI50.
system: RPMI-8226; experiment: NCI tumour cell line growth inhibition, 48 h
Calls of active or inactive are those of the source. No stated cut-off is given here; in the data, active = GI50 up to about 1.1 µM and inactive = higher.

Hey, RPMI-8226 data for CCOc1ccc(NC(=O)C(=O)NO)cc1 : GI50 came out at > 100 µM (inactive)

Record Cc1nc(Nc2ccc([N+](=O)[O-])cc2)sc1C(=O)/C=C/c1ccc(N(C)C)cc1 / RPMI-8226, GI50 recorded as 54.1 µM (inactive)

The compound O=c1oc2ccc3ccccc3c2cc1-c1nc2ccccc2o1 , when measured on RPMI-8226, yielded GI50 of > 38.8 µM (inactive)

The measured GI50 that O=c1c2cc(I)ccc2nc(SCc2nnco2)n1Cc1ccccc1 showed for RPMI-8226 is > 100 µM (inactive)

Measured on RPMI-8226, O=[N+]([O-])c1cc(-[n+]2cc([O-])on2)ccc1F has a documented GI50 of 8.97 µM (inactive)

So the reported GI50 for Clc1cc2c(cc1Cl)CC(NCCN1CCCC1)CC2 (stereo not drawn) , on RPMI-8226, turned out to be 12.6 µM (inactive)

Record CCN(CC)CCOc1ccc(N2Cc3cc(OC)c(OC)cc3C2=O)cc1 ; system RPMI-8226; GI50 = > 100 µM (inactive)

The compound CSCC(CO)NC(=O)/C=C/c1c(C)[nH]c(=O)[nH]c1=O (stereo not drawn) , when measured on RPMI-8226, yielded GI50 of 661 µM (inactive)

* * *

For each record, write down the corresponding GI50.
test system: COLO 205; assay: NCI tumour cell line growth inhibition, 48 h
Calls of active or inactive are those of the source. Cut-off read from the data, not from the text of the source: active = GI50 up to about 1.1 µM and inactive = higher.

CC1(C)O[C@@H](CBr)C[C@H](C[C@H]2C[C@@H](O)C[C@@H](CCOCc3ccccc3)O2)O1 on COLO 205 gives GI50 = 17 µM (inactive)

With COLO 205 as the test system, CCC12CN(C(=O)OC)C3C(Br)C1CCC(=O)C32 (stereo not drawn) showed GI50 of > 100 µM (inactive)

Kindly note: COLO 205, CCOC(=O)C(/C(=N/NC(=O)OC)C(=O)Nc1ccc(C(C)=O)cc1)c1cnc2ccccc2n1 (stereo not drawn) , GI50 value reported: > 100 µM (inactive)

Origin of the recorded values: ChEMBL document CHEMBL1201862
